# System: HIV
# METHOD NOTES: In vitro anti-HIV activity in MT4 cells
# Format: cell-based
# MEASUREMENT SETUP: Human immunodeficiency virus 1, MT4, antiviral activity, MT4 cells

COMPOUND | EC50
COC(=O)N[C@H](C(=O)NN(CC[C@@]1(Cc2ccccc2)C(=O)N([C@H]2c3ccccc3C[C@H]2O)C[C@H]1O)Cc1ccc(Br)cc1)C(C)(C)C [Compound 13a] | < 1 µM

Values compiled from paper PMC3310203.
